- system_under_test: Histamine H2 receptor (Cavia porcellus) (UniProt P47747)
- Sequence (P47747 whole entry): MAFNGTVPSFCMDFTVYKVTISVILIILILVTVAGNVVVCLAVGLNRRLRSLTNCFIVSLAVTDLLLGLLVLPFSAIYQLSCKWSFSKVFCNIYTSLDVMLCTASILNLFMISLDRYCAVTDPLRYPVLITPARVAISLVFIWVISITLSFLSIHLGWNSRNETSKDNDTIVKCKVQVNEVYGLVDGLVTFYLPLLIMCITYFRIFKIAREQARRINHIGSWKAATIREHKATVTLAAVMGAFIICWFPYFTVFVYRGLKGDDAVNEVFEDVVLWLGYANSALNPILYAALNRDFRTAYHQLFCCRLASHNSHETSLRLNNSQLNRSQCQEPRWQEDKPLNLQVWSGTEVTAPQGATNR
- protocol_description: Histamine H2 receptor antagonism in isolated guinea pig right atrium at concentration of 1*10e-6 g/mL of histamine hydrochloride
- Format: functional, tissue-based
- assay_conditions: Cardiac atrium
# binarize inhibition: threshold 30% inclusive, high side criterion met, low side criterion not met

Field: example entries. Status: answers known.
CC(=O)NCc1ccc(-c2csc(NC(=N)NCc3ccccc3C)n2)o1 :: criterion met
CC(=O)NCc1ccc(-c2csc(NC(=N)NCc3ccccc3Cl)n2)o1 :: criterion met
CC(=O)NCc1ccc(-c2csc(NC(=N)NCCCc3ccccc3)n2)o1 :: criterion met
COc1ccccc1CC/N=C(\N)Nc1nc(-c2cc(CNC(C)=O)c(C)o2)cs1 :: criterion not met
CC(=O)NCc1ccc(-c2csc(NC(=N)NCc3ccco3)n2)o1 :: criterion met

## Task Could you verify whether the entry CC(=O)NCc1ccc(-c2csc(NC(=N)NCCc3ccccn3)n2)o1 shows inhibition of no less than 30%?
## Result criterion not met

## Task Could you verify whether the entry CC(=O)NCc1ccc(-c2csc(NC(=N)NCc3ccccc3)n2)o1 shows inhibition of no less than 30%?
## Result criterion met
